test: Solubility of artemisone in organic solvents, excipients and SMEDDS (HPLC); assay type: physicochemical; settings: organic solvent or mixture, thermodynamic from solid, in ethanol, 25 °C
outcome_measure: solubility at 24 h

compound	outcome_measure	result
C[C@H]1[C@H](N2CCS(=O)(=O)CC2)O[C@@H]2O[C@@]3(C)CC[C@H]4[C@H](C)CC[C@@H]1[C@@]24OO3 [artemisone]	solubility at 24 h	30 mg/mL

====

assay: Solubility of artemisone in organic solvents, excipients and SMEDDS (HPLC); format: physicochemical; details: organic solvent or mixture, thermodynamic from solid, in DMF, 25 °C

substance_smiles	solubility at 24 h
C[C@H]1[C@H](N2CCS(=O)(=O)CC2)O[C@@H]2O[C@@]3(C)CC[C@H]4[C@H](C)CC[C@@H]1[C@@]24OO3	> 100 mg/mL
